# Test details: yeast growth modulation, basal conditions, primary screen, YJM789 clinical isolate, OD600, 24 h (AID 1089);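 further: growth of clinical yeast isolate S. cerevisiae YJM 789 seeded 1000 cells per well; test concentration not given here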
# Stated conditions: S. cerevisiae YJM789 growth, higher = more signal, called active from +8 up or from −8 down
Parameter: z-score. Scope: all listed entries.
Enter the number alone.

Some entries whose results are on file:
>>> test_value("CC(C)(C)OC(=O)CC[C@@]12N=C(c3ccc(OCCCO)cc3)O[C@@H]1c1ccccc1N(CCS(=O)(=O)c1ccccc1)C2=O")
-0.0877
>>> test_value("[N-]=[N+]=NCc1ccccc1[C@H]1OC(c2ccc(OCCCO)cc2)=N[C@@]1(Cc1ccccc1)C(=O)NCc1ccccc1")
-1.9
>>> test_value("Cc1ccc(S[C@]2(C(=O)NC(C)C)CC(=O)N(Cc3ccccc3Cl)[C@@H]2c2ccc(CO)cc2I)cc1")
-1.59
>>> test_value("COCCOC(=O)N1C(=O)[C@@]2(c3cc(C#CC4=CCCCC4)ccc31)[C@H](C(=O)Nc1nc3ccccc3s1)[C@H]1C(=O)O[C@H](c3ccccc3)[C@H](c3ccccc3)N1[C@@H]2c1ccc(OCCO)cc1")
2.47
>>> test_value("CC(C)C(CO)N1C(=O)[C@@H]2[C@H]3C(=O)OCC=C[C@H]3OC23C=CCN(C(C)C)C(=O)[C@@H]13 (stereo partly drawn)")
0.58

Inquiry: Item under review: `C=C(CCCC)C(=O)CC[C@H](OC(C)=O)c1cccc(OCCO)c1` . Reported z-score?
Reply text: 0.292

Inquiry: Follow-up item: `COc1ccc([Si](C)(C)[C@H]2[C@H](CC(=O)N3Cc4ccccc4C[C@H]3CO)O[C@@]3(C(=O)N(Cc4ccc(N5CCC5=O)cc4)c4ccccc43)[C@@H]2C)cc1`
Reply text: -1.57

Inquiry: Param item: `COCCOC(=O)N1C(=O)[C@@]2(c3cc(C#CCCO)ccc31)[C@H](c1ccc(OCCO)cc1)N1[C@H](c3ccccc3)[C@H](c3ccccc3)OC(=O)[C@H]1[C@@H]2C(=O)N1CCN(c2ncccn2)CC1`
Reply text: -0.01

Inquiry: Please give the result for `O=C1O[C@H](c2ccccc2)[C@H](c2ccccc2)N2[C@H]1[C@@H](C(=O)O)[C@]1(C(=O)Nc3ccc(C#CC4=CCCCC4)cc31)[C@H]2c1ccccc1OCCO` too.
Reply text: 1.07

Inquiry: And what about the molecule `O=C1O[C@H](c2ccccc2)[C@H](c2ccccc2)N2[C@H]1[C@@H](C(=O)O)[C@]1(C(=O)Nc3ccc(C#CCCO)cc31)[C@H]2c1ccc(O)cc1` ?
Reply text: 0.396

---

Below, each of the molecules is paired with its reported z-score value.
# Test details: modulators of S6 phosphorylation in cells, primary screen, cell-based, A549, cytoblot, luminescence, serum-stimulated (AID 1158);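 further: serum-stimulated A549 lung adenocarcinoma cells; signal is phosphorylated S6 detected by cytoblot immunostaining with HRP secondary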
# Stated conditions: A549 phospho-S6 cytoblot, 5 h, higher = more signal
# output: bare number, no unit

Inquiry: If you can, please state the reported z-score value of `O=C1O[C@@H](c2ccccc2)[C@@H](c2ccccc2)N2[C@@H](c3ccccc3OCCO)[C@]3(C(=O)Nc4ccc(C#CC5=CCCCC5)cc43)[C@@H](C(=O)Nc3nc4ccccc4s3)[C@H]12` .
Reply text: 0.653

Inquiry: Now consider COc1ccc(C(=O)O[C@H]2CC[C@]3(C)C4=C(CCC3C2(C)C)[C@]2(C)CC[C@H]([C@H](C)CCCC(C)C)[C@@]2(C)CC4)cc1 (some centres undefined) .
Reply text: 1.86

Inquiry: Field entry: `COc1ccc([Si](C)(C)[C@@H]2[C@@H](CCO)O[C@]3(C(=O)N(Cc4ccc(N5C(=O)COc6ccccc65)cc4)c4ccccc43)[C@H]2C)cc1`
Reply text: 0.866

Inquiry: For `CN1C(=O)[C@]2(Cc3ccccc3)N=C(c3ccc(OCCCO)cc3)O[C@@H]2c2ccccc21` then?
Reply text: 0.435

Inquiry: Entry CC(C)(C)OC(=O)CC[C@]1(C(=O)NCC(O)CO)COC(c2ccc(OCCCO)cc2)=N1 (some centres undefined) please
Reply text: 0.0272

Cited source for all entries: PubChem BioAssay
